target: Jak2 (UniProt O60674); test: phosphorylation enrichment, bacterial display (enrichment ratio); higher = better substrate or ligand; peptides without Tyr show the background;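 also: 11-residue human phosphosite peptides and single-mutation variants displayed on the E. coli surface, counted by deep sequencing, each peptide's frequency after selection divided by its frequency in the unselected input library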;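 also: frequency after pTyr selection over input frequency; kinase dosed for 20-30% of maximal phosphorylation in three min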
Sequence (O60674 whole entry, looked up): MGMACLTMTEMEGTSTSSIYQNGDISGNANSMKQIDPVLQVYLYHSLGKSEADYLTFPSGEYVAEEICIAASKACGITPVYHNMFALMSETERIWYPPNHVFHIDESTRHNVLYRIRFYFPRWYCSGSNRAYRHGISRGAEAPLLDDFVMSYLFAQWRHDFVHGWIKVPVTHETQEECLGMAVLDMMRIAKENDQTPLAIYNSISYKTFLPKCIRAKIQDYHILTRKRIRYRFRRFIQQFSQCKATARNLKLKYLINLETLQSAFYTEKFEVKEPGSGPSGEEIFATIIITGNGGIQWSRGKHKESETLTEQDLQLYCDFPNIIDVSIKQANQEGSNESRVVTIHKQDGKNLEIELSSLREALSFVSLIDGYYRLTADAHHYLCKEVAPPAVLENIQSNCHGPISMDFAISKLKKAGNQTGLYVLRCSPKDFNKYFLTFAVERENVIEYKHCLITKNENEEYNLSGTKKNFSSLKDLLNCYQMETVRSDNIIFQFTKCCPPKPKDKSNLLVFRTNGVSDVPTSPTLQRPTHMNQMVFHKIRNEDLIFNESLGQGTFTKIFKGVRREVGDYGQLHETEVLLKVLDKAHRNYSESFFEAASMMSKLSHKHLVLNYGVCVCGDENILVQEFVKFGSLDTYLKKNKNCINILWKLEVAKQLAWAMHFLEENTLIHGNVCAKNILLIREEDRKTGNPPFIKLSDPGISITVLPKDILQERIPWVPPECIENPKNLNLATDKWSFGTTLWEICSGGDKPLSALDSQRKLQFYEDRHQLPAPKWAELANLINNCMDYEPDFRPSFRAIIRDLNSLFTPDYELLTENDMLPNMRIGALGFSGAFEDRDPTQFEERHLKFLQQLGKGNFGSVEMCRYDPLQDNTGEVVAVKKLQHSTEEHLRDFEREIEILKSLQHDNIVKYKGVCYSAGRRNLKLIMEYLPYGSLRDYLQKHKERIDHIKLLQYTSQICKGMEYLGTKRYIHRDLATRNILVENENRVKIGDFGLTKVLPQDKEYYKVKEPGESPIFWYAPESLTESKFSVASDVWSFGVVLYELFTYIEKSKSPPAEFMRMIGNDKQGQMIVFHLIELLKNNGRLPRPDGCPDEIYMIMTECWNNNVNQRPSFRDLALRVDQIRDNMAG
So basically every entry gets a class from its phosphorylation enrichment, ranges being I: < 0.8; II: ≥ 0.8 and < 1; III: ≥ 1

# Sequence Entry, Qualitative Label
rows = [
    ("CTIIHYNYMCN [TP53_Y234_T231I]", "II"),
    ("ILKPDYQPLAV [HYDIN_Y1072_I1077V]", "I"),
    ("NQDRTYFESVR [SPEN_Y632_YF]", "II"),
    ("AQQPIYVRVEG [NLRP7_Y318]", "II"),
    ("LLVVVYKFRCF [PSEN1_Y154_L153V_YF]", "I"),
    ("QEALEYFMKQI [PIK3CA_Y1038_M1043I]", "III"),
    ("HHIDFYKETTN [FGFR1_Y654_K656E_YF]", "II"),
    ("KGELRYMHSRV [ABCD1_Y281]", "I"),
    ("FASALYGQRRS [FGF11_Y162_R163G_YF]", "I"),
    ("KGFRGYSFDDI [TMEM230_Y110_YF]", "II"),
    ("PHQTIYSALMI [FGF23_Y70]", "III"),
    ("NLMPAYFKCIQ [CYP21A2_Y190_YF]", "III"),
    ("HNVAIYEGYAL [ACTC1_Y168_P166A]", "III"),
    ("HRGCLYLAIEY [TEK_Y899_Y897C]", "III"),
    ("LEITWYPFDME [RIPOR2_Y316_V320M]", "III"),
    ("GDKKAYVRLAP [RPL23A_Y137_E133D]", "I"),
    ("YTTIHYNYMCN [TP53_Y234_C229Y]", "III"),
    ("SVVVPYEPREV [TP53_Y220_P223R]", "I"),
    ("VKMLPYTEVTR [GDI1_Y93_L92P]", "I"),
    ("QLCVSYPGGYT [PROS1_Y259_N258S]", "II"),
    ("QRRFLYFFSFL [PTEN_Y176_V175L_YF]", "III"),
    ("QNTADYFDLFG [PTPN11_Y62_G60A_YF]", "III"),
    ("PSSRDYKHNIK [PIGN_Y227]", "I"),
    ("SFVMVYEGNAR [INSR_Y1038_G1035V]", "III"),
    ("ENQEIYQKAFD [KPNA1_Y493]", "III"),
]

----------
target: Fes (UniProt P07332); test: phosphorylation enrichment, bacterial display (enrichment ratio); higher = better substrate or ligand; peptides without Tyr show the background
Sequence (P07332 whole entry, looked up): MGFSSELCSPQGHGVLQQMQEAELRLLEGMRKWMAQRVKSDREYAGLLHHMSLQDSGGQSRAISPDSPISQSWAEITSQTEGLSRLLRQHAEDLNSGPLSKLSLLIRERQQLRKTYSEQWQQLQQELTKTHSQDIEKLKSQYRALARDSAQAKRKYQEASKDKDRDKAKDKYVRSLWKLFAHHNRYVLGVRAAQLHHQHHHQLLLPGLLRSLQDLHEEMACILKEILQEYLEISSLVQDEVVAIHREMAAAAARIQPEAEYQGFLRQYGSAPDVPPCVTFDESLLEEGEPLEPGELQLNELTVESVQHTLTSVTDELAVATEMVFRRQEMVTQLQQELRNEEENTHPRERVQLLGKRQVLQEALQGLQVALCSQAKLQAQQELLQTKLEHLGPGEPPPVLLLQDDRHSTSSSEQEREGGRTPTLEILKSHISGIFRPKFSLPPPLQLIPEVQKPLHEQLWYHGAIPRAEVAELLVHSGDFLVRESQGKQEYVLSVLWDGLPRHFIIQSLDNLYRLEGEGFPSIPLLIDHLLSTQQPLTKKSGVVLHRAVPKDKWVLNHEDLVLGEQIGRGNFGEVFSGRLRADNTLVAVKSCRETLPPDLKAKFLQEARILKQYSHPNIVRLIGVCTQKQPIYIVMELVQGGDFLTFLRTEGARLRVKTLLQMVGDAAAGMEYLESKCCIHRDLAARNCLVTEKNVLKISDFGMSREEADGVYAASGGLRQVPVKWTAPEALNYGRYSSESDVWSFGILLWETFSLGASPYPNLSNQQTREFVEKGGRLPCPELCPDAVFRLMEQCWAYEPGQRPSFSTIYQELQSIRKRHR
# phosphorylation enrichment per record follows

# Sequence Entry, Study Target, phosphorylation enrichment
data = [
    ("EVDETYVPKKF [ALB_Y521_E525K]", "Fes (UniProt P07332)", 0.952),
    ("TENAGYYFRIS", "Fes (UniProt P07332)", 1.75),
    ("RISRKYKKVRF [F8_Y442_G439S]", "Fes (UniProt P07332)", 0.883),
    ("SCPANYFAFKI [FAM3D_Y65_P60S]", "Fes (UniProt P07332)", 1.08),
    ("PSSRDYKHNIK [PIGN_Y227]", "Fes (UniProt P07332)", 0.572),
    ("PHQTIYSALMI [FGF23_Y70]", "Fes (UniProt P07332)", 3.94),
    ("ARVDTYCRHNF [HLA-DRB1_Y107_A103R_YF]", "Fes (UniProt P07332)", 0.992),
    ("VPVPGYTKLPE [SPRR3_Y146]", "Fes (UniProt P07332)", 1.05),
    ("TVLWQYTGTRP [UGT1A1_Y337_R336Q]", "Fes (UniProt P07332)", 1.04),
    ("VMSMNYRVGAL [BCHE_Y174_V170M]", "Fes (UniProt P07332)", 0.878),
    ("VPVNGYQPVPA [ROR2_Y824]", "Fes (UniProt P07332)", 0.748),
    ("HAKKNYGNSSV [HDX_Y197]", "Fes (UniProt P07332)", 0.409),
    ("LEISPYMLSGP [LRRK2_Y1718_R1723P]", "Fes (UniProt P07332)", 1.16),
    ("GKFFQYDTWNQ [IGF2_Y116_K120N]", "Fes (UniProt P07332)", 1.07),
    ("FAASSYSFSDL [EMD_Y59_S54F]", "Fes (UniProt P07332)", 1.15),
    ("VPDTNYTSDEE [STK33_Y439_A437T]", "Fes (UniProt P07332)", 1.19),
    ("LEPHIYAVADV [MYO9A_Y216]", "Fes (UniProt P07332)", 1.02),
    ("RDVEQYVNNVN [PCDH19_Y1097_L1094V]", "Fes (UniProt P07332)", 0.93),
    ("VAMDDYLKNVM [LRRK2_Y707]", "Fes (UniProt P07332)", 0.956),
    ("HSDFQYSQRSQ [PKP2_Y168_YF]", "Fes (UniProt P07332)", 1.02),
    ("NSRFTCKLEVK [USH2A_Y3747_Y3747C_YF]", "Fes (UniProt P07332)", 1.66),
    ("ADYPDCKYRPR [SOX11_Y116_Y116C]", "Fes (UniProt P07332)", 0.955),
    ("EQMASYFGHSV [ITGA2B_Y319]", "Fes (UniProt P07332)", 0.663),
    ("SRVNKYSTAFG [GJB3_Y16_G12R]", "Fes (UniProt P07332)", 0.633),
    ("ADARMYGVHPW [PLP1_Y207_L210H]", "Fes (UniProt P07332)", 0.726),
    ("HESEIYGKVCF [CSRP3_Y57_C58G_YF]", "Fes (UniProt P07332)", 1.71),
    ("DYNPNYCFAGK [ALK_Y1096]", "Fes (UniProt P07332)", 1.03),
    ("EEETDYTPVWC [UROD_Y30_G25E]", "Fes (UniProt P07332)", 1.25),
    ("ADEEYYEIIAA [FEStide_no-pY_2014]", "Fes (UniProt P07332)", 1.48),
]
